Below, each entry is listed alongside its reported IC50.
- System: cancer cell lines with wild-type p53 / mutated or deleted p53 (ATCC)
- protocol_description: Cell growth assay (WST-8), other cancer cell lines
- Assay type: cell-based
- run_parameters: Homo sapiens, PC-3, Table 19A; PC-3 cells, deleted p53, cell growth; read-out: PC-3 (deleted p53) IC50
Write it as a number; the unit µM goes unstated.

Please review the following examples before continuing.
INSERT INTO measurements (molecule, assay_result) VALUES
  ('CN1CCN(CCCNC(=O)[C@@H]2N[C@H](CC(C)(C)C)[C@]3(C(=O)Nc4cc(Cl)ccc43)[C@H]2c2cccc(Cl)c2F)CC1 [MI-519-46]', 3.7),
  ('CC(C)[C@@H](N)C(=O)OC1CCC(NC(=O)[C@@H]2N[C@H](CC(C)(C)C)[C@]3(C(=O)Nc4cc(Cl)ccc43)[C@H]2c2cccc(Cl)c2F)CC1 (stereo partly drawn) [MI-905]', 3.9),
  ('CC(C)(C)C[C@H]1N[C@@H](C(N)=O)[C@H](c2cccc(Cl)c2F)[C@@]12C(=O)Nc1cc(Cl)ccc12 [MI-519-50]', 16.9),
  ('CN(C)CCC(=O)N1CCN(C(=O)[C@@H]2N[C@H](CC(C)(C)C)[C@]3(C(=O)Nc4cc(Cl)c(F)cc43)[C@H]2c2cccc(Cl)c2)CC1 [MI-746]', 6.9);

Now for another entry.
Value of measured IC50 for the entry CC(C)(C)C[C@H]1N[C@@H](C(=O)NCCCNS(C)(=O)=O)[C@H](c2cccc(Cl)c2F)[C@@]12C(=O)Nc1cc(Cl)c(F)cc12 [MI-768] : 7.3
